Value source: patent US7449447B2

- Assayed Target: HCV NS3/NS4a serine protease (Hepatitis C virus genotype 1b)
- Construct: amino terminus of the NS3 protease domain (amino acids 3-181) with a tetrapeptide linker; made in house; host or cells: E. coli
- Protocol Text: Spectrophotometric assay for HCV protease inhibitory activity (chromogenic ester substrates)
- Format: biochemical, hepatitis C virus (strain 1b)
- Reported Conditions: Ki, Table 3; rating; single chain NS4A21-32-GSGS-NS3 3-181 protease, 30° C., pH 6.5

Molecule	Ki
CC(Cc1ccc(Cl)cc1)NC(=O)[C@H](CC(F)F)NC(=O)[C@@H]1[C@@H]2[C@H](CN1C(=O)[C@@H](NC(=O)N[C@H](CN(C)S(C)(=O)=O)C(C)(C)C)C(C)(C)C)C2(C)C (stereo partly drawn)	100 to 500 nM
CN(C[C@@H](NC(=O)N[C@H](C(=O)N1C[C@H]2[C@@H]([C@H]1C(=O)N[C@@H](CC(F)F)C(=O)NCCc1cccc(F)c1)C2(C)C)C(C)(C)C)C(C)(C)C)S(C)(=O)=O	< 100 nM
CN(C[C@@H](NC(=O)N[C@H](C(=O)N1C[C@H]2[C@@H]([C@H]1C(=O)N[C@@H](CC(F)F)C(=O)NC1CCCc3ccccc31)C2(C)C)C(C)(C)C)C(C)(C)C)S(C)(=O)=O (stereo partly drawn)	> 500 nM

====

- Assayed Target: HCV NS3/NS4a serine protease (Hepatitis C virus genotype 1b, UniProt P26663)
- Construct: amino terminus of the NS3 protease domain (amino acids 3-181) with a tetrapeptide linker; made in house; host or cells: E. coli
- Sequence (P26663 1013-1207, looked up, natural form): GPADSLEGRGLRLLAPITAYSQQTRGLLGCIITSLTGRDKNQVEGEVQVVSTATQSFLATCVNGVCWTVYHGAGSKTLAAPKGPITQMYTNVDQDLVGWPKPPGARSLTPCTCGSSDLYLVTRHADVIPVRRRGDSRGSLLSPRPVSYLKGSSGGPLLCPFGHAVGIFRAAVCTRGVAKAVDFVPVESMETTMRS
- Protocol Text: Spectrophotometric assay for HCV protease inhibitory activity (chromogenic ester substrates)
- Type: biochemical, hepatitis C virus (strain 1b)
- Reported Conditions: Ki, Table 3; rating; single chain NS4A21-32-GSGS-NS3 3-181 protease, 30° C., pH 6.5
Measured Attribute: Ki

Molecule	Assayed Target	Val
CN(C[C@@H](NC(=O)N[C@H](C(=O)N1C[C@H]2[C@@H]([C@H]1C(=O)N[C@@H](CC(F)F)C(=O)NC1CCc3ccccc31)C2(C)C)C(C)(C)C)C(C)(C)C)S(C)(=O)=O (some centres unmarked) [Example 217]	HCV NS3/NS4a serine protease (Hepatitis C virus genotype 1b, UniProt P26663)	> 500 nM
CN(C[C@@H](NC(=O)N[C@H](C(=O)N1C[C@H]2[C@@H]([C@H]1C(=O)N[C@@H](CC(F)F)C(=O)NC1Cc3ccccc3C1)C2(C)C)C(C)(C)C)C(C)(C)C)S(C)(=O)=O [Example 218]	HCV NS3/NS4a serine protease (Hepatitis C virus genotype 1b, UniProt P26663)	> 500 nM
CN(C[C@@H](NC(=O)N[C@H](C(=O)N1C[C@H]2[C@@H]([C@H]1C(=O)N[C@@H](CC(F)F)C(=O)NCCc1ccccc1Cl)C2(C)C)C(C)(C)C)C(C)(C)C)S(C)(=O)=O [Example 251]	HCV NS3/NS4a serine protease (Hepatitis C virus genotype 1b, UniProt P26663)	< 100 nM
CN(C[C@@H](NC(=O)N[C@H](C(=O)N1C[C@H]2[C@@H]([C@H]1C(=O)N[C@@H](CC(F)F)C(=O)NCCc1ccccc1)C2(C)C)C(C)(C)C)C(C)(C)C)S(C)(=O)=O [Example 258]	HCV NS3/NS4a serine protease (Hepatitis C virus genotype 1b, UniProt P26663)	< 100 nM
CN(C[C@@H](NC(=O)N[C@H](C(=O)N1C[C@H]2[C@@H]([C@H]1C(=O)N[C@@H](CC(F)F)C(=O)NCCCN1CCOCC1)C2(C)C)C(C)(C)C)C(C)(C)C)S(C)(=O)=O [Example 242]	HCV NS3/NS4a serine protease (Hepatitis C virus genotype 1b, UniProt P26663)	> 500 nM

====

- Assayed Target: HCV NS3/NS4a serine protease (Hepatitis C virus genotype 1b)
- Construct: amino terminus of the NS3 protease domain (amino acids 3-181) with a tetrapeptide linker; made in house; host or cells: E. coli
- Protocol Text: Spectrophotometric assay for HCV protease inhibitory activity (chromogenic ester substrates)
- Type: biochemical, hepatitis C virus (strain 1b)
- Reported Conditions: Ki, Table 3; rating; single chain NS4A21-32-GSGS-NS3 3-181 protease, 30° C., pH 6.5
Measured Attribute: Ki

Compound	Measured Attribute	Val
CCOc1ccccc1CCNC(=O)[C@H](CC(F)F)NC(=O)[C@@H]1[C@@H]2[C@H](CN1C(=O)[C@@H](NC(=O)N[C@H](CN(C)S(C)(=O)=O)C(C)(C)C)C(C)(C)C)C2(C)C [Example 273]	Ki	< 100 nM
CCN(Cc1ccncc1)C(=O)[C@H](CC(F)F)NC(=O)[C@@H]1[C@@H]2[C@H](CN1C(=O)[C@@H](NC(=O)N[C@H](CN(C)S(C)(=O)=O)C(C)(C)C)C(C)(C)C)C2(C)C [Example 304]	Ki	> 500 nM
CN(C[C@@H](NC(=O)N[C@H](C(=O)N1C[C@H]2[C@@H]([C@H]1C(=O)N[C@@H](CC(F)F)C(=O)NCCc1c[nH]c3ccccc13)C2(C)C)C(C)(C)C)C(C)(C)C)S(C)(=O)=O [Example 252]	Ki	< 100 nM
COc1ccc(CCNC(=O)[C@H](CC(F)F)NC(=O)[C@@H]2[C@@H]3[C@H](CN2C(=O)[C@@H](NC(=O)N[C@H](CN(C)S(C)(=O)=O)C(C)(C)C)C(C)(C)C)C3(C)C)cc1Cl [Example 281]	Ki	< 100 nM
CN(C[C@@H](NC(=O)N[C@H](C(=O)N1C[C@H]2[C@@H]([C@H]1C(=O)N[C@@H](CC(F)F)C(=O)NCCCn1cccc1)C2(C)C)C(C)(C)C)C(C)(C)C)S(C)(=O)=O [Example 238]	Ki	> 500 nM

====

- Assayed Target: HCV NS3/NS4a serine protease (Hepatitis C virus genotype 1b, UniProt P26663)
- Construct: amino terminus of the NS3 protease domain (amino acids 3-181) with a tetrapeptide linker; made in house; host or cells: E. coli
- Protocol Text: Spectrophotometric assay for HCV protease inhibitory activity (chromogenic ester substrates)
- Format: biochemical, hepatitis C virus (strain 1b)
- Reported Conditions: read-out: Ki Rating; Table 2; single chain NS4A21-32-GSGS-NS3 3-181 protease, 30° C., pH 6.5
Measured Attribute: Ki

Compound	Assayed Target	Val
COC(=O)c1ccc(CCNC(=O)[C@H](CC(F)F)NC(=O)[C@@H]2[C@@H]3[C@H](CN2C(=O)[C@@H](NC(=O)N[C@H](C(=O)OC(C)(C)C)C(C)C)C(C)(C)C)C3(C)C)cc1 [Example 137]	HCV NS3/NS4a serine protease (Hepatitis C virus genotype 1b, UniProt P26663)	100 to 500 nM

====

- Assayed Target: HCV NS3/NS4a serine protease (Hepatitis C virus genotype 1b, UniProt P26663)
- Construct: amino terminus of the NS3 protease domain (amino acids 3-181) with a tetrapeptide linker; made in house; host or cells: E. coli
- Protocol Text: Spectrophotometric assay for HCV protease inhibitory activity (chromogenic ester substrates)
- Type: biochemical, hepatitis C virus (strain 1b)
- Reported Conditions: Ki Rating, Table 2; single chain NS4A21-32-GSGS-NS3 3-181 protease, 30° C., pH 6.5
pKi: −log10 of the molar value.

Compound	pKi
CC(C)(C)OC(=O)[C@@H](NC(=O)N[C@H](C(=O)N1C[C@H]2[C@@H]([C@H]1C(=O)N[C@@H](CC(F)F)C(=O)NCCc1ccc(C(=O)O)cc1)C2(C)C)C(C)(C)C)C(C)(C)C [Example 127]	6.30 to 7.00
CC(C)[C@H](NC(=O)N[C@H](C(=O)N1C[C@H]2[C@@H]([C@H]1C(=O)NC(CC(F)F)C(=O)NCCc1ccccc1)C2(C)C)C(C)(C)C)C(=O)O (stereo partly shown) [Example 136]	6.30 to 7.00
CC1(NC(=O)N[C@H](C(=O)N2C[C@H]3[C@@H]([C@H]2C(=O)N[C@@H](CC(F)F)C(=O)NCCC(=O)O)C3(C)C)C(C)(C)C)CCCCC1 [Example 165]	< 6.30
COC(=O)c1ccc(CCNC(=O)[C@H](CC(F)F)NC(=O)[C@@H]2[C@@H]3[C@H](CN2C(=O)[C@@H](NC(=O)N[C@H](C(=O)c2ccccc2)C(C)C)C(C)(C)C)C3(C)C)cc1 [Example 134]	6.30 to 7.00
CC(C)[C@H](NC(=O)N[C@H](C(=O)N1C[C@@H]2OC(C)(C)C[C@@H]2[C@H]1C(=O)N[C@@H](CC(F)F)C(=O)NCCc1ccc(C(=O)O)cc1)C1CCCCC1)C(=O)OC(C)(C)C [Example 150]	< 6.30
CC(C)(C)OC(=O)CCNC(=O)[C@H](CC(F)F)NC(=O)[C@@H]1[C@@H]2[C@H](CN1C(=O)[C@@H](NC(=O)OC(C)(C)C)C(C)(C)C)C2(C)C [Example 162]	< 6.30
CC(C)[C@H](NC(=O)N[C@H](C(=O)N1C[C@H]2[C@@H]([C@H]1C(=O)NC(CC(F)F)C(=O)NCCc1ccccc1)C2(C)C)C(C)(C)C)C(=O)OC(C)(C)C (stereo partly shown) [Example 140]	6.30 to 7.00
CC(C)[C@H](NC(=O)N[C@H](C(=O)N1C[C@H]2[C@@H]([C@H]1C(=O)N[C@@H](CC(F)F)C(=O)NCCC(=O)OC(C)(C)C)C2(C)C)C(C)(C)C)C(=O)OC(C)(C)C [Example 174]	< 6.30
CC(C)[C@H](NC(=O)N[C@H](C(=O)N1C[C@H]2[C@@H]([C@H]1C(=O)N[C@@H](CC(F)F)C(=O)NCCc1ccc(C(N)=O)cc1)C2(C)C)C(C)(C)C)C(=O)O [Example 124]	6.30 to 7.00
CC(C)[C@H](NC(=O)N[C@H](C(=O)N1C[C@H]2[C@@H]([C@H]1C(=O)N[C@@H](CC(F)F)C(=O)NCCc1ccc(C(=O)O)cc1)C2(C)C)C(C)(C)C)C(=O)OC(C)(C)C [Example 125]	6.30 to 7.00
